# TARGET ENTITY: TrkB (Homo sapiens (Human), UniProt Q16620 32-430)
# Sequence (Q16620 32-430 limits assumed): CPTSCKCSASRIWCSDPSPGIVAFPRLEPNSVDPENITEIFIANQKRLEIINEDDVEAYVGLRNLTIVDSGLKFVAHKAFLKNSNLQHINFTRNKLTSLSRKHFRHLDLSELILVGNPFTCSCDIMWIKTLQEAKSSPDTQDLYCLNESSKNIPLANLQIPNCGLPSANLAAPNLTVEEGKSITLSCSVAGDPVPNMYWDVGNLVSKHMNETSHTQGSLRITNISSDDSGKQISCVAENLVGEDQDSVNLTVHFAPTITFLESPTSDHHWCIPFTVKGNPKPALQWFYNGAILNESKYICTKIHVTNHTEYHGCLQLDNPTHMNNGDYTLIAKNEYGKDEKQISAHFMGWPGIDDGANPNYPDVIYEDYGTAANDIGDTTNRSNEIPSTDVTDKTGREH
# EXPERIMENT SUMMARY: koff of Fab at 25 C; T1/2=Log2/koff
OBSERVED PROPERTY: T1/2 (min)
Answer with a number only, understood to be in min.

1) 4B12-22 (Fab, V domains shown, Fab) VH: QVQLVQSGAEVKKPGASVKVSCKASGYTFTNYDIIWVRQAPGQGLEWMGYINPYNGRREYNEKFKGRVTMTRDTSTSTVYMELSSLRSEDTAVYYCARLLKYARFRYYAIDYWGQGTTVTVSS VL: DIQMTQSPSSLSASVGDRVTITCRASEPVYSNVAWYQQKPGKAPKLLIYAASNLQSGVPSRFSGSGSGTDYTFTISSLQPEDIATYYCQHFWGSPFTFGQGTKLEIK
3.5

We next turn to a different binder, shown below.
Req: I have this binder here, 11-G5 (Fab, V domains shown, Fab) VH: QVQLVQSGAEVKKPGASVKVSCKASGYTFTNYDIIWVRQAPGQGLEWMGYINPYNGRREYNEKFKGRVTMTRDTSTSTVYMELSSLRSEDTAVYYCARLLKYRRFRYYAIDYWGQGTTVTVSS VL: DIQMTQSPSSLSASVGDRVTITCRASENVYYNLAWYQQKPGKAPKLLIYAASNLQSGVPSRFSGSGSGTDFTFTISSLQPEDIATYYCQHFWYSPFTFGQGTKLEIK , and I need its recorded T1/2.
Resp: 5.9
